Consider the following IC50 data for Glycogen synthase kinase-3 beta (Homo sapiens, UniProt P49841), collected from several reports.
value_type: IC50 (nM)

Illustrative cases are given below, each with its answer.
[[record]]
compound = "COc1cnc(NCc2ccccc2)nc1-c1cc2c([nH]1)CCNC2=O"
value_type = "IC50"
recorded_measurement = 98

[[record]]
compound = "Cc1cc(Nc2ncc(C)c(N3CC4CCC(C3)N4CCC#N)n2)sn1"
value_type = "IC50"
recorded_measurement = 311


[P] Brc1cnn2c(NCc3cccnc3)cc(C3CCCNC3)nc12 (stereo unspecified)
[Q] COc1nc(-c2ccnc(NC(=O)C3CC3)c2)sc1C(N)=O
Please choose the item with the lower IC50 value from this pair: P and Q Respond with the label that goes with your answer.
Q
(Q: 1.1 nM, P: 180 nM)

----------
Consider the following pIC50 data for Glycogen synthase kinase-3 beta (Homo sapiens, UniProt P49841), collected from several reports.
pIC50: −log10 of the molar value.
value_type: pIC50

[[record]]
compound = "Cc1ccc(-c2ccnc(N(C)c3ccc(S(N)(=O)=O)cc3)n2)s1"
study_target = "Glycogen synthase kinase-3 beta (Homo sapiens, UniProt P49841)"
recorded_measurement = 4.19


[a] c1ccc(-c2cnc3cnc(-c4ccncc4)cn23)cc1
[b] Cc1ccc(-c2c[nH]c(C3COCCN3Cc3c[nH]c4ccccc34)n2)cc1 (stereo unspecified)
[c] CSc1cnn2c(NCc3cccnc3)cc(-c3ccccc3)nc12
Order the records by pIC50, with each subsequent value no larger than the one before. Answer by writing out the labels in the requested order.
b, c, a
(b: 6.92, c: 5.74, a: 5.51)

[P] Cc1cn(CCCNC(=O)c2ccc(O)c3[nH]c(-c4cccs4)nc23)cn1
[Q] Nc1nc(Nc2ccccc2)sc1C(=O)C1CC1
Which numeric pIC50 is bigger, that of P or that of Q ? Respond with the label that goes with your answer.
P

----------
pIC50: −log10 of the molar value.
Consider the following pIC50 data for Glycogen synthase kinase-3 beta (Homo sapiens), collected from several reports.
value_type: pIC50

Illustrative cases are given below, each with its answer.
[[record]]
compound = "CS(=O)(=O)Nc1ccc(CCNC(=O)c2ccc(O)c3[nH]c(Cc4ccccc4)nc23)cc1"
study_target = "Glycogen synthase kinase-3 beta (Homo sapiens)"
value_type = "pIC50"
recorded_measurement = 5.80

[[record]]
compound = "COc1ccc2c(c1)c(C1=C(c3ccc(C)cc3)C(=O)NC1=O)cn2CCCn1ccnc1"
study_target = "Glycogen synthase kinase-3 beta (Homo sapiens)"
value_type = "pIC50"
recorded_measurement = 7.00

[[record]]
compound = "COc1ccc(C2=C(c3cn(CCCn4ccnc4)c4cc(Br)ccc34)C(=O)NC2=O)cc1"
study_target = "Glycogen synthase kinase-3 beta (Homo sapiens)"
value_type = "pIC50"
recorded_measurement = 6.64


[I] O=[N+]([O-])c1ccc(NCCNc2ncc(-c3ncc[nH]3)c(-c3ccc(Cl)cc3Cl)n2)nc1
[II] CCCCCCCCCCCC(=O)NNC(=O)C1Sc2ccccc2N(Cc2ccccc2)C1=O (stereo unspecified)
[III] CNc1cc(NCc2cccnc2)n2ncc(Br)c2n1
[IV] COc1ccccc1C1=C(c2cn(CCCn3ccnc3)c3ccc(C)cc23)C(=O)NC1=O
Please put the entries in order of rising pIC50. Answer by writing out the labels in the requested order.
II, III, IV, I
(II: 5.00, III: 5.34, IV: 7.19, I: 8.00)
